Assay: Assessment of solubility (HT solubility, pION, UV)
Format: physicochemical
Settings: pH 4.5 buffer (pION system solution), pH 4.5, aqueous buffer, kinetic from dmso stock, pH 4.5 buffer, incubated 16-19 hours, 1.0% DMSO, 100 uM; read-out: Sol pH 4.5
Kindly state solubility kinetic for each of the entries shown.
Give bare numbers, in µg/mL.

Some solved entries appear below for comparison.
Cc1ccc(OCc2ccc3c(c2)CCN(C2CCC(C(F)(F)F)CC2)C3)c(-c2cccc(-n3ncc(C(=O)O)c3C(F)(F)F)n2)c1 (stereo not shown) [Compound 33] = 6.3
Cc1ccc(OCc2ccc3c(c2)CCN(CCc2ccccc2)C3)c(-c2cccc(-n3ncc(C(=O)O)c3C(F)(F)F)n2)c1 [Compound 20] = 7.8
Cc1ccc(OCc2ccc3c(c2)nnn3C)c(-c2cccc(-n3ncc(C(=O)O)c3C(F)(F)F)n2)c1 [Compound 10] = 0.95

# context switch: different molecule, same solubility kinetic
Input: Quick one: solubility kinetic of Cc1cccc(-c2cccc(-c3c(C)c(C(=O)O)nn3C3CC3)n2)c1OCc1ccc2c(c1)CCN(C1CCC(F)(F)CC1)C2 [Compound 90] ?
Output: 49

----------
Record form. Attribute: EC50. Fill in for each entry.
Target: Recombinant human soluble guanylate cyclase (sGC) (Homo sapiens, UniProt Q02153)
Construct: histidine tag (C)
Sequence (Q02108 whole entry partner): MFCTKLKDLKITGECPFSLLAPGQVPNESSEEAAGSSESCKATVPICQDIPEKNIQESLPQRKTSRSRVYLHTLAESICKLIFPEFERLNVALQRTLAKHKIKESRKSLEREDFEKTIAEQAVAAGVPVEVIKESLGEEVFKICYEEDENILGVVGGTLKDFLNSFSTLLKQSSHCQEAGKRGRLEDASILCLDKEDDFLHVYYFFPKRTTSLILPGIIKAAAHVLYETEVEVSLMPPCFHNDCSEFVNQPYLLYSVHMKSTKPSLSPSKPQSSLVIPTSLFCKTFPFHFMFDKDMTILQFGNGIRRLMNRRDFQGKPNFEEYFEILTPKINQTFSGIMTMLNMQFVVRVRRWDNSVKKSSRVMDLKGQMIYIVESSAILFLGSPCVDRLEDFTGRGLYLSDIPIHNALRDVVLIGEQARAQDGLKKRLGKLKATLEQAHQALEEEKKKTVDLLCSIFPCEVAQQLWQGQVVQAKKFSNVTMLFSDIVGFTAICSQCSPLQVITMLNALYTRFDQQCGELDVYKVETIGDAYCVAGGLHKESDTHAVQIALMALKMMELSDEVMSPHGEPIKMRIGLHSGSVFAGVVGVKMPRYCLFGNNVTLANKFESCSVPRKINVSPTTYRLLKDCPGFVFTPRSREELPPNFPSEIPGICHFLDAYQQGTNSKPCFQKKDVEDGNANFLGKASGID
Sequence (Q02153 whole entry): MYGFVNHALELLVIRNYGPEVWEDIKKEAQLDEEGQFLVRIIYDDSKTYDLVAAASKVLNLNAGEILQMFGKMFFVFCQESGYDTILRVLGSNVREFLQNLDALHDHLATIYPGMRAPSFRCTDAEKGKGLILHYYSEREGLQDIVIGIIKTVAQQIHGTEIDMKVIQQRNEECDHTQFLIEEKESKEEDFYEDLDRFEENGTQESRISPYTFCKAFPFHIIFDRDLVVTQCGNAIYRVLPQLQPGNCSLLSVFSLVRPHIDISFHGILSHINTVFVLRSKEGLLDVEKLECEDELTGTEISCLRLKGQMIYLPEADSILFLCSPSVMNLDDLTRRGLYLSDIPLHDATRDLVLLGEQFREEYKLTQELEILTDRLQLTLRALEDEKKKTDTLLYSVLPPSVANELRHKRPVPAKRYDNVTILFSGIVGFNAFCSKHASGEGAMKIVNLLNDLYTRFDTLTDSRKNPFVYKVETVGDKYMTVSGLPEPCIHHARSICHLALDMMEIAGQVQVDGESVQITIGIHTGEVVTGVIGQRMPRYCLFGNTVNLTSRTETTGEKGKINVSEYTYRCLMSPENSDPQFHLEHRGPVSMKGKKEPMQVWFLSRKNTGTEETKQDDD
Test: Molecular assay: activation of heme-free sGC, cGMP detection (CisBio kit)
Conditions: 300 pM heme-free sGC, 37° C., 60 minutes, cGMP formation
Experimental: The compounds of the invention may be evaluated in the following molecular assay: […] sGC catalyzes the conversion of guanosine-5′-triphosphate (GTP) to cyclic guanosine monophosphate (cGMP). The activity of sGC is measured in vitro using the commercially available CisBio cGMP detection kit (catalog #62GM2PEB) in a 384 well format. […]

Worked examples follow.
Cc1ccc(OCc2ccc3c(c2)CCN(C2CCOC2)C3)c(-c2cccc(-n3ncc(C(=O)O)c3C(F)(F)F)n2)c1 (stereo not shown) = 7 nM
Cc1cccc(-c2cccc(-c3ncc(C(=O)O)n3C)n2)c1OCc1ccc2c(c1)CCN(C1CCCCCC1)C2 = 100 nM
Cc1cccc(-c2cccc(-c3c(C)c(C(=O)O)nn3C(C)C)n2)c1OCc1ccc2c(c1)CCN(C1CCOCC1)C2 = 50 nM
Cc1ccc(OCc2ccc3c(c2)CCN(CC2CCOC2)C3)c(-c2cccc(-n3ncc(C(=O)O)c3C(F)(F)F)n2)c1 (stereo not shown) = 2 nM
Cc1ccc(OCc2ccc3c(c2)CCN(CC2CCCOC2)C3)c(-c2cccc(-n3ncc(C(=O)O)c3C(F)(F)F)n2)c1 (stereo not shown) = 3 nM

// each listed molecule needs a value for EC50
1. Cc1cccc(-c2cccc(-n3cnc(C(=O)O)c3C)n2)c1OCc1ccc2c(c1C)CCN(C1CCOC1)C2 (stereo not shown)
2. Cc1ccc(OCc2ccc3c(c2)CCN(C(C)C)C3)c(-c2cccc(-n3ncc(C(=O)O)c3C(F)(F)F)n2)c1

Output:
1: 44 nM; 2: 25 nM

----------
Assay: Assessment of solubility (HT solubility, pION, UV)
Assay type: physicochemical
Conditions: pH 4.5 buffer (pION system solution), pH 4.5, aqueous buffer, kinetic from dmso stock, pH 4.5 buffer, incubated 16-19 hours, 1.0% DMSO, 100 uM; read-out: Sol pH 4.5
Result type: solubility kinetic

// solved cases for solubility kinetic follow
Cc1ccc(OCc2cc3c(cc2C)CN(C)CC3)c(-c2cccc(-n3ncc(C(=O)O)c3C(F)(F)F)n2)c1 = 2.8 µg/mL
Cc1ccc(OCc2ccc3c(c2C)CCN(C)C3)c(-c2cccc(-n3ncc(C(=O)O)c3C(F)(F)F)n2)c1 = 15.5 µg/mL
Cc1ccc(OCc2ccc3c(c2C)CCN(C)C3)c(-c2cccc(-c3ncc(C(=O)O)n3C)n2)c1 = 5.1 µg/mL

Go through the list and state solubility kinetic for each entry.
1. Cc1ccc(OCc2ccc3c(c2)CCN(C2CC2)C3)c(-c2cccc(-n3ncc(C(=O)O)c3C(F)(F)F)n2)c1
2. CCn1nc(C(=O)O)c(C)c1-c1cccc(-c2cccc(C)c2OCc2ccc3c(c2)CCN(C2CCOCC2)C3)n1
3. Cc1ccc(OCc2ccc3c(c2)CCN(CC2CCOC2)C3)c(-c2cccc(-n3ncc(C(=O)O)c3C(F)(F)F)n2)c1 (stereo not drawn)

Output:
1. > 54 µg/mL
2. > 67 µg/mL
3. > 59 µg/mL

Quick batch: solubility kinetic for everything below.
1. Cc1cccc(-c2cccc(-c3c(C)c(C(=O)O)nn3C(C)(C)C)n2)c1OCc1ccc2c(c1)CCN(C1CCOCC1)C2
2. Cc1cccc(-c2cccc(-n3cnc(C(=O)O)c3C)n2)c1OCc1ccc2c(c1C)CCN(Cc1ccccn1)C2
3. Cc1ccc(OCc2ccc3c(c2)CCN(C2CCC2)C3)c(-c2cccc(-n3ncc(C(=O)O)c3C(F)(F)F)n2)c1

Output:
1: > 70 µg/mL; 2: > 65 µg/mL; 3: > 67 µg/mL

----------
Experiment: Assessment of solubility (HT solubility, pION, UV)
Format: physicochemical
Details: pH 4.5 buffer (pION system solution), pH 4.5, aqueous buffer, kinetic from dmso stock, pH 4.5 buffer, incubated 16-19 hours, 1.0% DMSO, 100 uM; read-out: Sol pH 4.5
Result type: solubility kinetic (µg/mL)
Answers are plain numbers, in µg/mL.

Cc1cccc(-c2cccc(-c3c(C)c(C(=O)O)nn3C3CCOCC3)n2)c1OCc1ccc2c(c1)CCN(C1CCOCC1)C2 = 51.5
Cc1ccc(OCc2ccc3c(c2)CCN(Cc2nc(C)cs2)C3)c(-c2cccc(-n3ncc(C(=O)O)c3C(F)(F)F)n2)c1 = 12.9
Cc1ccc(OCc2ccc3c(c2)CCN(Cc2cc(C)on2)C3)c(-c2cccc(-n3ncc(C(=O)O)c3C(F)(F)F)n2)c1 = 22
Cc1ccc(OCc2ccc3c(c2)CCN(C2CCOC2)C3)c(-c2cccc(-n3ncc(C(=O)O)c3C(F)(F)F)n2)c1 (centres unmarked) = 42.3
Cc1ccc(OCc2ccc3c(c2)N(C)CCC3)c(-c2cccc(-n3ncc(C(=O)O)c3C(F)(F)F)n2)c1 = 8.1

Fill in solubility kinetic for each of the 3 compounds listed.
1. Cc1ccc(OCc2ccc3c(c2)CCN3S(C)(=O)=O)c(-c2cccc(-n3ncc(C(=O)O)c3C(F)(F)F)n2)c1
2. Cc1ccc(OCc2ccc3c(c2)CCN(C2CCOCC2)C3)c(-c2cccc(-n3ncc(C(=O)O)c3C(F)(F)F)n2)c1
3. Cc1ccc(OCc2ccc3c(c2)CCN(C)C3)c(-c2cccc(-c3sc(C(=O)O)cc3C)n2)c1

Output:
[0.4, 41.5, 14.1]

Dear colleague, could you please provide solubility kinetic for the compounds listed below?
1. CC(=O)N1CCc2cc(COc3ccc(C)cc3-c3cccc(-n4ncc(C(=O)O)c4C(F)(F)F)n3)ccc2C1
2. Cc1ccc(OCc2ccc3c(c2)CCN(C2CCCC2)C3)c(-c2cccc(-n3ncc(C(=O)O)c3C(F)(F)F)n2)c1

Output:
[0.5, 44.3]

----------
Test: Assessment of solubility (HT solubility, pION, UV)
Format: physicochemical
Settings: pH 7.4 buffer, incubated 16-19 hours, 1.0% DMSO, 100 uM
Result type: Sol pH 7.4 (μg/mL)
Numbers only, in μg/mL.

Cc1ccc(OCc2ccc3c(c2)CCN(Cc2ccccc2)C3)c(-c2cccc(-n3ncc(C(=O)O)c3C(F)(F)F)n2)c1 [Compound 27] = 25.6

Let us move to another entry and its Sol pH 7.4.
Input: Requested field: Sol pH 7.4. Item: CCn1c(C(=O)O)cnc1-c1cccc(-c2cccc(C)c2OCc2ccc3c(c2)CCN(C2CCOCC2)C3)n1 [Compound 63]
Output: 54.2

----------
Assay: Assessment of solubility (HT solubility, pION, UV)
Type: physicochemical
Details: pH 7.4 buffer, incubated 16-19 hours, 1.0% DMSO, 100 uM
Result type: Sol pH 7.4 (μg/mL)
Numbers only, in μg/mL.

Cc1ccc(OCc2ccc3c(c2)CCN(C)C3)c(-c2cccc(-n3ncc(C(=O)O)c3C(F)(F)F)n2)c1 = 6.1
Cc1ccc(OCc2ccc3c(c2)CN(C)CC3)c(-c2cccc(-n3ncc(C(=O)O)c3C(F)(F)F)n2)c1 = 42.1

Input: Consider the compound Cc1ccc(OCc2ccc3c(c2C)CCN(C)C3)c(-c2cccc(-c3c(C)c(C(=O)O)nn3C)n2)c1 and give its measured Sol pH 7.4.
Output: 24.2

----------
Please go through the items and note down their Sol pH 7.4.
Test: Assessment of solubility (HT solubility, pION, UV)
Assay type: physicochemical
Conditions: pH 7.4 buffer, incubated 16-19 hours, 1.0% DMSO, 100 uM
Give bare numbers, in μg/mL.

Cc1ccc(OCc2ccc3c(c2)CCN(C)CC3)c(-c2cccc(-n3ncc(C(=O)O)c3C(F)(F)F)n2)c1 [Compound 40] = 18.5
CCn1cc(CN2CCc3cc(COc4ccc(C)cc4-c4cccc(-n5ncc(C(=O)O)c5C(F)(F)F)n4)ccc3C2)cn1 [Compound 32] = 15.9
Cc1ccc(OCc2ccc3c(c2)CCNC3)c(-c2cccc(-n3ncc(C(=O)O)c3C(F)(F)F)n2)c1 [Compound 4] = 21.7
Cc1ccc(OCc2ccc3c(c2)CCN(C2CCOCC2)C3)c(-c2cccc(-n3ncc(C(=O)O)c3C(F)(F)F)n2)c1 [Compound 34] = 41.8
Cc1ccc(OCc2ccc3c(c2)CCN(C)C3)c(-c2cccc(-c3ncc(C(=O)O)n3C)n2)c1 [Compound 41] = 11.8
Cc1cccc(-c2cccc(-c3c(C)c(C(=O)O)nn3CC(F)(F)F)n2)c1OCc1ccc2c(c1)CCN(C1CCOCC1)C2 [Compound 87] = 14.1

// batch mode: one Sol pH 7.4 value per listed entry
1. Cc1ccc(OCc2ccc3c(c2)CCN(C)C3)c(-c2cccc(-c3csc(C(=O)O)c3C)n2)c1 [Compound 46]
2. Cc1cccc(-c2cccc(-c3c(C)c(C(=O)O)nn3C)n2)c1OCc1ccc2c(c1)CCN(C1CCOCC1)C2 [Compound 81]
3. Cc1ccc(OCc2ccc3c(c2)CCN(Cc2nc(C)cs2)C3)c(-c2cccc(-c3csc(C(=O)O)c3C)n2)c1 [Compound 50]
4. Cc1ccc(OCc2ccc3c(c2)CCN(C)C3)c(-c2cccc(-n3ncc(C(=O)O)c3C)n2)c1 [Compound 43]
5. Cc1ccc(OCc2ccc3c(c2C)CCN(C)C3)c(-c2cccc(-c3ncc(C(=O)O)n3C)n2)c1 [Compound 48]
6. Cc1cccc(-c2cccc(-c3ncc(C(=O)O)n3C)n2)c1OCc1ccc2c(c1)CCN(C1CCOCC1)C2 [Compound 67]
7. Cc1ccc(OCc2ccc3c(c2)CCN(C)C3)c(-c2cccc(-c3sc(C(=O)O)cc3C)n2)c1 [Compound 37]

Output:
[5.7, 31.7, 13.4, 19.6, 1.9, 54.2, 27.4]
